# Test name: Stability of select salts of Compound 1 at 5, 25 and 40° C. over 6 months, purity by HPLC
# Assay type: physicochemical
# Run conditions: 25° C., 3rd Month
Structures can show the parent of a compound that is named as a salt.
Recorded metric: Purity

[
  {
    "Compound": "C[C@H](NC(=O)OC[n+]1cccc(C(=O)NCCO[N+](=O)[O-])c1)C1CCCCC1 [Compound 1 Esylate Salt]",
    "Recorded metric": "Purity",
    "Measurement": 73.9
  },
  {
    "Compound": "C[C@H](NC(=O)OC[n+]1cccc(C(=O)NCCO[N+](=O)[O-])c1)C1CCCCC1 [Compound 1 4-Nitrobesylate Salt]",
    "Recorded metric": "Purity",
    "Measurement": 86.8
  },
  {
    "Compound": "C[C@H](NC(=O)OC[n+]1cccc(C(=O)NCCO[N+](=O)[O-])c1)C1CCCCC1 [Compound 1 Besylate Salt]",
    "Recorded metric": "Purity",
    "Measurement": 66.7
  },
  {
    "Compound": "C[C@H](NC(=O)OC[n+]1cccc(C(=O)NCCO[N+](=O)[O-])c1)C1CCCCC1 [Compound 1 4-Bromobesylate Salt]",
    "Recorded metric": "Purity",
    "Measurement": 76.8
  },
  {
    "Compound": "C[C@H](NC(=O)OC[n+]1cccc(C(=O)NCCO[N+](=O)[O-])c1)C1CCCCC1 [Compound 1 Phosphate Salt]",
    "Recorded metric": "Purity",
    "Measurement": 78.2
  },
  {
    "Compound": "C[C@H](NC(=O)OC[n+]1cccc(C(=O)NCCO[N+](=O)[O-])c1)C1CCCCC1 [Compound 1 Perchlorate Salt]",
    "Recorded metric": "Purity",
    "Measurement": 84.9
  },
  {
    "Compound": "C[C@H](NC(=O)OC[n+]1cccc(C(=O)NCCO[N+](=O)[O-])c1)C1CCCCC1 [Compound 1 Sulphate Salt]",
    "Recorded metric": "Purity",
    "Measurement": 33.7
  },
  {
    "Compound": "C[C@H](NC(=O)OC[n+]1cccc(C(=O)NCCO[N+](=O)[O-])c1)C1CCCCC1 [Compound 1 Trifluoroacetate Salt]",
    "Recorded metric": "Purity",
    "Measurement": 92.2
  },
  {
    "Compound": "C[C@H](NC(=O)OC[n+]1cccc(C(=O)NCCO[N+](=O)[O-])c1)C1CCCCC1 [Compound 1 Triflate Salt]",
    "Recorded metric": "Purity",
    "Measurement": 85.8
  }
]
